Target: Aminopeptidase N (Plasmodium falciparum (isolate 3D7))
Assay: malaria alanyl aminopeptidase activity blockers – biochemical, fluorogenic H-Leu-NHMec substrate, 1536-well (AID 1445);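 further: plate controls were DMSO full reaction for no effect and no enzyme background for full effect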
Conditions: recombinant M1AAP, H-Leu-NHMec fluorogenic kinetic assay; at 30 µM, hits give high values unless noted
The campaign covered roughly 220,000 compounds. About 910 (0.41%) were called active. The sample holds actives, similar compounds and a random draw of the others, so the mix is not that of the screen. Results with a measured potency or affinity are listed apart.
VALUE_KIND: inhibition (%)

> print(dat)
                                    molecule                             target.system  value.kind  quantitative.readout
 1  O=C(NNc1c(Cl)cc(Cl)cc1Cl)c1cccc([N+](=O)[O-])c1  Aminopeptidase N (Plasmodium falciparum (isolate 3D7))  inhibition                  0.41
 2            COc1ccc(C(=O)Nc2cccc(OC)c2)cc1  Aminopeptidase N (Plasmodium falciparum (isolate 3D7))  inhibition                  1.64
 3  CCOC(=O)CSc1nc2c(sc(=S)n2-c2ccc(OCC)cc2)c(=O)[nH]1  Aminopeptidase N (Plasmodium falciparum (isolate 3D7))  inhibition                  13.9
 4          COc1ccc2nc(SCc3ccccc3C)nc(C)c2c1  Aminopeptidase N (Plasmodium falciparum (isolate 3D7))  inhibition                  2.23
 5  CCN(CC)C(=O)CSc1nc2c(sc(=S)n2-c2ccccc2)c(=O)[nH]1  Aminopeptidase N (Plasmodium falciparum (isolate 3D7))  inhibition                  5.01
 6  CCOc1ccc(-n2c(=S)sc3c(=O)[nH]c(SCC(=O)NCC4CCCO4)nc32)cc1 (stereo not drawn)  Aminopeptidase N (Plasmodium falciparum (isolate 3D7))  inhibition                  18.3
 7  Cc1nnc(SCC(=O)N2CCN(C(=O)c3ccco3)CC2)n1-c1ccccc1  Aminopeptidase N (Plasmodium falciparum (isolate 3D7))  inhibition                 -1.57
 8            c1ccc(Oc2cccc(NC3=NCCC3)c2)cc1  Aminopeptidase N (Plasmodium falciparum (isolate 3D7))  inhibition                  29.3
 9  CCOc1ccc2c(c1)c1nnc(SCC(=O)N3CCC(C)CC3)nc1n2C  Aminopeptidase N (Plasmodium falciparum (isolate 3D7))  inhibition                  7.57
10                     Clc1cccc(NC2=NCCC2)c1  Aminopeptidase N (Plasmodium falciparum (isolate 3D7))  inhibition                  0.77
11  O=c1c2ccccc2nc(COc2ccccc2)n1/N=C/c1ccc(O)cc1O  Aminopeptidase N (Plasmodium falciparum (isolate 3D7))  inhibition                  19.8
12  CCOc1ccc(C(=O)NC(=S)Nc2cccnc2)cc1[N+](=O)[O-]  Aminopeptidase N (Plasmodium falciparum (isolate 3D7))  inhibition                  6.68
13  Cc1cc2cc(C#N)c(NCCNC(=S)NCCCN3CCOCC3)nc2cc1C  Aminopeptidase N (Plasmodium falciparum (isolate 3D7))  inhibition                    11
14     CCCc1nc2ccccc2c(=O)n1/N=C/c1ccc(O)cc1  Aminopeptidase N (Plasmodium falciparum (isolate 3D7))  inhibition                 -1.67
15  Cc1cc(C)nc(SCC(=O)N/N=C/c2cccn2-c2ccc(O)cc2)n1  Aminopeptidase N (Plasmodium falciparum (isolate 3D7))  inhibition                  8.99
16          CC1CCN(C(=O)CSc2nc(N)cc(N)n2)CC1  Aminopeptidase N (Plasmodium falciparum (isolate 3D7))  inhibition                 -2.52
17  O=C(CCNC(=O)c1ccccc1)N=Nc1c(O)[nH]c2ccccc12  Aminopeptidase N (Plasmodium falciparum (isolate 3D7))  inhibition                    14
18  Cc1ccc(S(=O)(=O)N(C)C)cc1NC(=O)COC(=O)c1sc2cc(Cl)ccc2c1Cl  Aminopeptidase N (Plasmodium falciparum (isolate 3D7))  inhibition                 -0.59
19  O=c1c2ccccc2nc(COc2ccccc2)n1/N=C/c1ccc(O)c(O)c1  Aminopeptidase N (Plasmodium falciparum (isolate 3D7))  inhibition                  14.6
20                  Cc1nc(SCc2ccccc2C)n[nH]1  Aminopeptidase N (Plasmodium falciparum (isolate 3D7))  inhibition                 -7.66
21  Cc1c(NC(=O)C(C)OC(=O)[C@@H](NC(=O)c2ccccc2)C(C)C)c(=O)n(-c2ccccc2)n1C (stereo partly drawn)  Aminopeptidase N (Plasmodium falciparum (isolate 3D7))  inhibition                  11.4
22  CCn1c(COc2cccc(OC)c2)nnc1SCC(=O)Nc1cccc(OC)c1  Aminopeptidase N (Plasmodium falciparum (isolate 3D7))  inhibition                  -3.8
23  CC(C)CCNC(=O)CNC(=S)N(Cc1ccccc1)Cc1cccnc1  Aminopeptidase N (Plasmodium falciparum (isolate 3D7))  inhibition                 -3.15
